# credit: paper PMC5733478

Assignment: determine reported % 25 nM CA200645 binding for the given molecules.
Biological target: human A3AR (Homo sapiens, UniProt P0DMS8)
Construct: expressed in transfected cells
Test: LOPAC library primary screen: single concentration (10 μM) inhibition of 25 nM CA200645 binding, PHERAstar FS
Answers are plain numbers, in %.

Consider the worked cases shown below.
Cc1nn(-c2ccccc2)c(C)c1/C=N/N1CCN(Cc2ccccc2)CC1 | 82.1
Cc1c(OCC(F)(F)F)ccnc1C[S+]([O-])c1nc2ccccc2[nH]1 (stereo not drawn) | 100.3

We next turn to a different molecule, shown below.
So what does the record say about % 25 nM CA200645 binding for `Oc1ncnc2[nH]ncc12` ?
99.8

###

Assignment: determine reported % 25 nM CA200645 binding for the given compounds.
Biological target: human A3AR (Homo sapiens, UniProt P0DMS8)
Construct: expressed in transfected cells
Sequence (P0DMS8 1-318): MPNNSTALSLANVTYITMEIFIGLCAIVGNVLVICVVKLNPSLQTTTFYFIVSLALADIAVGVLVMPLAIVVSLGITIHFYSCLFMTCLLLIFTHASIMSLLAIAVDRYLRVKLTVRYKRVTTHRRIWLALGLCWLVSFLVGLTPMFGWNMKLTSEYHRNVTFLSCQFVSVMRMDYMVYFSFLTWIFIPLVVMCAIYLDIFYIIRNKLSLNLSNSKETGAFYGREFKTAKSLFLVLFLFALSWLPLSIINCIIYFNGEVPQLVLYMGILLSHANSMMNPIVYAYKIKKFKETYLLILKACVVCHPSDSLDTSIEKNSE
Assay: LOPAC library primary screen: single concentration (10 μM) inhibition of 25 nM CA200645 binding, PHERAstar FS
One number for each entry, in %.

O=NN(CCCl)C(=O)NCCCl | 102.2
CN1CCC[C@@H]1Cc1c[nH]c2ccc(Nc3ncccc3[N+](=O)[O-])cc12 | 96.1
NC(Cc1cc(O)c(O)cc1O)C(=O)O (racemic) [6-Hydroxy-DL-DOPA] | 69.7
COc1cc(C(O)CO)ccc1OS(=O)(=O)[O-].[K+] (stereo not shown) [MHPG sulfate potassium] | 102.8
C[C@@H]1O[C@@H](O[C@H]2C[C@@H](O)[C@]3(CO)[C@H]4[C@H](O)C[C@]5(C)[C@@H]([C@@H]6COC(=O)C6)CC[C@]5(O)[C@@H]4CC[C@]3(O)C2)[C@H](O)[C@H](O)[C@H]1O [Dihydroouabain] | 102.4

Fill in % 25 nM CA200645 binding for each of the 5 compounds listed.
1. C#C[C@]1(O)CC[C@H]2[C@@H]3CCC4=Cc5oncc5C[C@]4(C)[C@H]3CC[C@@]21C
2. CC#CCOC(=O)c1c(C)nc2sc3c(c2c1N)CCC(O)C3 (stereo not shown)
3. NCC1(CC(=O)O)CCCCC1
4. COc1ccc2c(c1)c(CC(=O)O)c(C)n2C(=O)c1ccc(Cl)cc1
5. C[C@@]1(C2CCCC2)Cc2cc(OCC(=O)O)c(Cl)c(Cl)c2C1=O [R(+)-IAA-94]

1. 86.4
2. 95.1
3. 80.7
4. 72.9
5. 95.5

###

Target: human A3AR (Homo sapiens, UniProt P0DMS8)
Construct: expressed in transfected cells
Experiment: LOPAC library primary screen: single concentration (10 μM) inhibition of 25 nM CA200645 binding, PHERAstar FS
Where a name gives a salt, the structure may show the parent alone.
MEASURED ENDPOINT: % 25 nM CA200645 binding (%)
Give bare numbers, in %.

Consider the worked cases shown below.
O=c1c(O)c(-c2cc(O)c(O)c(O)c2)oc2cc(O)cc(O)c12 | 62.7
NC(=O)c1ccc2[nH]ccc2c1 | 96.7
CC(C)Oc1cccnc1N(C)C1CCN(Cc2ccccc2)CC1.O=C(O)/C=C\C(=O)O [U-101958 maleate] | 102.1
Br.Cc1o[nH]c(=O)c1CC(N)C(=O)O (racemic) [(±)-AMPA hydrobromide] | 96.2

Fill in % 25 nM CA200645 binding for each of the 5 compounds listed.
1. Nc1c[n+](N2CCOCC2)no1.[Cl-] [3-Morpholinosydnonimine hydrochloride]
2. C#CCN(C)Cc1ccccc1 [Pargyline hydrochloride]
3. CCn1c(=O)[nH]c2cc(Cl)c(Cl)cc21
4. Br.Br.CN(C)CCCc1cc(C(=O)Nc2ccc(-c3ccncc3)cc2)ccc1O [GR 55562 dihydrobromide]
5. N[C@@H](Cc1c[nH]c2ccc(O)cc12)C(=O)O [5-Hydroxy-L-tryptophan]

1. 114.0
2. 102.9
3. 87.8
4. 92.8
5. 97.7

###

Biological target: human A3AR (Homo sapiens)
Construct: expressed in transfected cells
Experiment: LOPAC library primary screen: single concentration (10 μM) inhibition of 25 nM CA200645 binding, PHERAstar FS
Structures can show the parent of a compound that is named as a salt.
Assignment: determine reported % 25 nM CA200645 binding for the given compounds.
One number for each entry, in %.

Consider the worked cases shown below.
CCOC(=O)C1=C(O)C(=O)N(Cc2ccccc2)C1 [EBPC] | 98.2
CN1CCN2c3ccccc3Cc3ccccc3C2C1 (centres unmarked) [Mianserin hydrochloride] | 92.0
CC(C)c1cccc(C(C)C)c1N1C(=O)c2ccc(O)cc2C1=O [5HPP-33] | 91.1
C1CNCCN1.COc1cc(C(O)CO)ccc1O.COc1cc(C(O)CO)ccc1O (centres unmarked) [MHPG piperazine] | 95.1

We next turn to a different compound, shown below.
So what does the record say about % 25 nM CA200645 binding for CC(N)=O [Acetamide] ?
96.1

###

Biological target: human A3AR (Homo sapiens, UniProt P0DMS8)
Construct: expressed in transfected cells
Test: LOPAC library primary screen: single concentration (10 μM) inhibition of 25 nM CA200645 binding, PHERAstar FS
Structures can show the parent of a compound that is named as a salt.
Assignment: determine reported % 25 nM CA200645 binding for the given molecules.
One number for each entry, in %.

Consider the worked cases shown below.
O=C1NC(=O)/C(=C/c2ccc3c(c2)OC(F)(F)O3)S1 | 58.3
CCc1cncnc1N1CCN(Cc2nc3ccc(C(F)(F)F)cc3[nH]2)CC1 | 99.2
CN(N=O)c1cc(O)ccc1O | 75.4
COc1ccc(C(CN(C)C)C2(O)CCCCC2)cc1 (centres unmarked) [Venlafaxine hydrochloride] | 97.3
Cl.Clc1ccc(N2CCN(Cc3c[nH]c4ncccc34)CC2)cc1 [L-745,870 hydrochloride] | 105.7

Fill in % 25 nM CA200645 binding for each of the 7 molecules listed.
1. CN(C)C(=O)N=NC(=O)N(C)C [N,N,N',N'-Tetramethylazodicarboxamide]
2. Cl.NO [Hydroxylamine hydrochloride]
3. CC(C)[C@@H]1CC[C@@H](C)C[C@@H]1P(=O)(c1ccccc1)c1ccccc1
4. Cc1cccc(-c2[nH]ncc2-c2ccc3ncccc3n2)n1
5. Clc1ccc2nsnc2c1NC1=NCCN1 [Tizanidine hydrochloride]
6. C[C@]12CCC(=O)C=C1CC[C@@H]1[C@@H]2[C@@H](O)C[C@@]2(C)[C@H]1CC[C@]2(O)C(=O)CO [Hydrocortisone]
7. CCN(CC)C(=O)c1ccc(O)c(OC)c1 [Vanillic acid diethylamide]

[95.9, 99.3, 89.1, 98.5, 107.2, 84.4, 101.7]

Fill in % 25 nM CA200645 binding for each of the 7 molecules listed.
1. CCCN(CCC)C(=O)C(CCC(=O)O)NC(=O)c1ccccc1 (centres unmarked) [Proglumide]
2. C[C@]12C[C@H](O)[C@H]3[C@@H](CCC4=CC(=O)CC[C@@]43C)[C@@H]1CC[C@@H]2C(=O)CO
3. COC1(C2=NCCN2)COc2ccccc2O1.Cl (centres unmarked) [RX 821002 hydrochloride]
4. Cc1nc2c(OCc3ccccc3)cccn2c1CC#N
5. Nc1nc2ccc(Cl)cc2c2nc(-c3ccco3)nn12
6. CN(C)CCCN1c2ccccc2Sc2ccc(Cl)cc21 [Chlorpromazine hydrochloride]
7. CCOC(=O)[C@H](CCc1ccccc1)N[C@@H](C)C(=O)N1[C@H](C(=O)O)C[C@H]2CCCC[C@@H]21

[107.1, 99.8, 101.0, 97.5, 30.0, 92.2, 99.7]

###

Assignment: determine reported % 25 nM CA200645 binding for the given compounds.
Biological target: human A3AR (Homo sapiens)
Construct: expressed in transfected cells
Sequence (P0DMS8 1-318): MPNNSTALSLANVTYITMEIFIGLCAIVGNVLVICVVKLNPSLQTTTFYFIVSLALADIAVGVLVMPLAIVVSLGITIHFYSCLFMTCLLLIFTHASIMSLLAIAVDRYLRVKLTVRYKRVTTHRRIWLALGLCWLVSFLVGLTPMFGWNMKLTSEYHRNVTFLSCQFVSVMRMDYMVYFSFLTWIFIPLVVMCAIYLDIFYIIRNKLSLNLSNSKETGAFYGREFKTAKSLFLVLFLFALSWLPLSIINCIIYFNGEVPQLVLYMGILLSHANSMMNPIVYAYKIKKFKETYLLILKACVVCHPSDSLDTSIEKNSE
Assay: LOPAC library primary screen: single concentration (10 μM) inhibition of 25 nM CA200645 binding, PHERAstar FS
Counter-ions that a name gives are not always drawn.
One number for each entry, in %.

Consider the worked cases shown below.
NC(CP(=O)(O)O)C(=O)O (racemic) [(±)-2-Amino-3-phosphonopropionic acid] | 96.0
Br.CN=c1nc(-c2ccccc2)n(-c2ccccc2)s1 [SCH-202676 hydrobromide] | 83.4
Cn1cnc([N+](=O)[O-])c1Sc1ncnc2nc[nH]c12 | 93.9
Cc1cc(C(C)(C)C)cc(C)c1CC1=NCCN1 [Xylometazoline hydrochloride] | 106.7
C[N+](C)(C)CC#CCN1CCCC1=O [Oxotremorine methiodide] | 101.3

Under human A3AR (Homo sapiens): % 25 nM CA200645 binding value of COC(=O)C1=C(C)NC(C)=C([N+](=O)[O-])C1c1ccccc1C(F)(F)F (racemic) [(±)-Bay K 8644] ?
95.3
